# protocol.description: recombinant barcode read abundance after kanamycin selection (control-corrected) (log10(CPM+1)); higher = more efficient recombination; sequences stand for … in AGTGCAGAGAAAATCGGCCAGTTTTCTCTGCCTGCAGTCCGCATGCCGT…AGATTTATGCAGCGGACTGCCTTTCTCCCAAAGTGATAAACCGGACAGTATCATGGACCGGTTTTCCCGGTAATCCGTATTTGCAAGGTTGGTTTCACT; site = the 11-nt target;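 also: IS621 recombinase and bridge RNA in Escherichia coli cells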
readout.label: recombinant barcode read abundance (log10)
Please respond with just the number, no unit label.

Challenge: What does the data say about its recombinant barcode read abundance (log10)? Entry: CGGAACTCTTGGGTTCTAACCTGTTGCCT (site AGGAACTCTAG)
Response given: 0.274

Challenge: // next record CGTTAACCTTGGGTTCTAACCTGTTGCGT (site CGTAAACCTAC)
Response given: 0.423

Challenge: Moving on to the next sequence: TACTGGGCTTGGGTTCTAACCTGTTGCTG (site TACTGGGCTCA)
Response given: 0.684

Challenge: Now try CTAACTACTTGGGTTCTAACCTGTTGCTT (site CTAACTACTAA) .
Response given: 0.252

Challenge: CTAGCGACTTGGGTTCTAACCTGTTGCAC (site AGGAGAGCTAA) ?
Response given: 0.409

Challenge: Then what about the sequence ATAACAGCTTGGGTTCTAACCTGTTGCCT (site ATAATAGCTAG) ?
Response given: 0.0968

Challenge: What do you have for CGCCGTCCTTGGGTTCTAACCTGTTGCAT (site CGCCGTCCTAT) ?
Response given: 0.279

Challenge: Try this sequence next: TGTCGCTCTTGGGTTCTAACCTGTTGCCT (site TGCCGCTCTAG)
Response given: 0.0379

Challenge: Try this sequence next: CGTCAGACTTGGGTTCTAACCTGTTGCCT (site CGTAAGACTAG)
Response given: 0

Challenge: Do the same for AACACGTCTTGGGTTCTAACCTGTTGCCT (site AACACGTCTAG) please
Response given: 0.576
